experiment: Saturation solubility of steroids in water and in aqueous cyclodextrin solutions (25°, 72 h stirring, filtration, assay of supernatant); assay type: physicochemical; conditions: water + betacyclodextrin; read-out: SOLUBILITE EN GRAMMES PAR LITRE dans eau + bétacyclodextrine
OBSERVATION TYPE: solubility at 72 h (µg/mL)
Kindly provide the numeric value in µg/mL only, without the unit symbol.

Find the recorded solubility at 72 h belonging to "CC(=O)[C@H]1CC[C@H]2[C@@H]3CC[C@@H]4C[C@H](O)CC[C@]4(C)[C@H]3CC[C@]12C" and report it.
440

* * *

Assay: Saturation solubility of steroids in water and in aqueous cyclodextrin solutions (25°, 72 h stirring, filtration, assay of supernatant)
Format: physicochemical
Details: water without cyclodextrin, 25°, 72 h; read-out: SOLUBILITE EN GRAMMES PAR LITRE dans l'eau
Method: On réalise des solutions de bétacyclodextrines à différentes concentrations de 0 à 5mM. A ces différentes solutions, on ajoute de la prégnane-5-béta-ol-3alpha-one-20 par pincées et ce jusqu'à apparition d'un précipité. On met sous agitation magnétique à 25° pendant 72 heures en prenant soin de vérifier à intervalles réguliers qu'il y a toujours saturation en stéroïdes. Au bout de 72 heures, on filtre les solutions ainsi réalisées et on dose le surnageant. […]
OBSERVATION TYPE: solubility at 72 h
In your response, put the unit directly after the numeric value.

Please give the measured solubility at 72 h for this compound: "CC(=O)[C@H]1CC[C@H]2[C@@H]3CC[C@@H]4C[C@H](O)CC[C@]4(C)[C@H]3CC[C@]12C"
5 µg/mL
